Test system: SK-OV-3
protocol_summary: NCI tumour cell line growth inhibition, 48 h
The source made the active and inactive calls. Rule as the data show it: active = GI50 up to about 1.1 µM and inactive = higher. Square brackets hold non-standard residues; d marks the D form. Peptide text beside a SMILES is read from it. * marks the point of attachment. Boc = CC(C)(C)OC(=O)*; Lac = C[CH](O)C(=O)O; OBn = c1ccc(CO*)cc1
GI50 values, listed per item
observed_property: GI50

compound	endpoint_result
COc1ccccc1N1C(=O)/C(=C\c2cc(OC)c(OC)c(OC)c2)SC1c1ccccc1 (centres undefined)	21.4 µM (inactive)
NNC(=O)CC(=O)Nc1ccccc1F	> 100 µM (inactive)
COc1ccc(-c2[nH]c(=O)n(C3OC(CO)C(O)C(O)C3O)c(=O)c2C#N)cc1 (centres undefined)	> 100 µM (inactive)
CC(OC(=O)C(Cc1ccccc1)NC(=O)C(Cc1ccccc1)NC(=O)OC(C)(C)C)C(=O)OCc1ccccc1 (stereo not drawn) (Boc-Phe-Phe-[Lac]-OBn; configuration not given here)	> 100 µM (inactive)
COC(=O)CC(C(C(=O)OC)C(=O)OC)N1C(=O)OCC1c1ccccc1 (centres undefined)	> 100 µM (inactive)
CCOC(=O)c1c(N2CCOCC2)[nH]c(=O)c(C(c2cccs2)c2c(O)c(C(=O)OCC)c(N3CCOCC3)[nH]c2=O)c1O	> 100 µM (inactive)
Cc1c2cc[n+](C)cc2c(C)c2c1[nH]c1ccc(OCC(F)(F)F)cc12	3.08 µM (inactive)
CCN(CC)CC1CCCCN1CC(=O)N1c2ccccc2NC(=O)c2ccccc21 (centres undefined)	> 100 µM (inactive)
O=C1[C@@H]2C(c3ccccc3Br)=NO[C@@H]2C(=O)N1c1ccc(Cc2ccc(N3C(=O)[C@H]4C(c5ccccc5Br)=NO[C@H]4C3=O)cc2)cc1	> 100 µM (inactive)
CN(C)Cc1cc(C(F)(F)F)ccc1C(O)(c1ccccc1)c1ccccc1	17.4 µM (inactive)
NC(=O)/N=C1/CCC2C3CCCC2C13	> 100 µM (inactive)
CC1(C2(C)OC(=O)c3ccccc32)OC(=O)c2ccccc21 (centres undefined)	> 100 µM (inactive)
CC(CO)C1=CC(C#CCOCc2ccccc2)N(C(=O)Oc2ccccc2)c2ccccc21 (centres undefined)	34.9 µM (inactive)
COc1cc2c(c(O)c1O)-c1ccc(OC)c(=O)cc1C(NC(C)=O)CC2 (centres undefined)	15 µM (inactive)
COc1ccc(C(=O)C(c2ccc(OCc3ccccc3)cc2)c2ccc(OCc3ccccc3)cc2)cc1	> 100 µM (inactive)
COc1cccc2c1C(=O)C=CC2=O	21.8 µM (inactive)
O=C(Cc1ccc(F)cc1)NC1=C(Cl)C(=O)c2ccccc2C1=O	4.94 µM (inactive)
COC(=O)C1=C(O)C(C(=O)OC)[C@]2(O)[C@H](C(=O)OC)[C@H]1C[C@@H](c1ccc(OC)c(OC)c1)[C@H]2C(=O)OC (some centres undefined)	17.6 µM (inactive)
O=C(N/C(=C\c1ccc(Cl)cc1)c1nc2ccccc2[nH]1)c1ccccc1	37.1 µM (inactive)

====

Test system: HOP-92
protocol_summary: NCI tumour cell line growth inhibition, 48 h
Calls of active or inactive are those of the source. Cut-off read from the data, not from the text of the source: active = GI50 up to about 1.1 µM and inactive = higher.
Some compounds, each annotated with its measured GI50.

compound	GI50
NCC1OC(OC2C(N)CC(N)C(O)C2OC2OC(CO)C(O)C2O)C(N)C(O)C1O (configuration not stated)	> 50 µM (inactive)
CC(CO)C1=CC(C#CCOCc2ccccc2)N(C(=O)Oc2ccccc2)c2ccccc21 (configuration not stated)	7.69 µM (inactive)
CC(C)(C)C(=O)C(Cc1ccccc1)C(=O)C(C)(C)C	29.6 µM (inactive)
Cc1cc(N(C)C)c2ccccc2[n+]1CCCCCCCCCC[n+]1c(C)cc(N(C)C)c2ccccc21.[O-][Cl+3]([O-])([O-])[O-].[O-][Cl+3]([O-])([O-])[O-]	1.64 µM (inactive)
COc1ccc(-c2cc(=O)c3c(O)c(OC)c(O)cc3o2)cc1O	15 µM (inactive)
Cc1cc(C)c(-n2c(-c3ccccc3)cs/c2=N\N=C2C=C(C(C)(C)C)C(=O)C(C(C)(C)C)=C2)c(C)c1	39 µM (inactive)
COc1cc(Cl)c(CC(=O)c2c[nH]c3ccccc23)cc1OC	5.36 µM (inactive)
C=CCc1cc(C=C(C#N)C#N)cc(OC)c1O	33.5 µM (inactive)
Clc1ccc(/C(=C\c2ccccc2)Cn2ccnc2)cc1	14.8 µM (inactive)
Cc1cc2[nH]c3c(C#N)c4c(c(=O)n3c2cc1C)CCCC4	87.7 µM (inactive)
COc1ccc(NC(=O)C(=O)c2c(O)c3ccc(O)cc3oc2=O)c([N+](=O)[O-])c1	> 100 µM (inactive)
C(CCCCc1nnc(N2CCCCC2)o1)CCCc1nnc(N2CCCCC2)o1	> 100 µM (inactive)

====

System: PC-3
protocol_summary: NCI tumour cell line growth inhibition, 48 h
Calls of active or inactive are those of the source. Cut-off read from the data, not from the text of the source: active = GI50 up to about 1.1 µM and inactive = higher. Square brackets hold non-standard residues; d marks the D form. Peptide text beside a SMILES is read from it. * marks the point of attachment. Boc = CC(C)(C)OC(=O)*; Lac = C[CH](O)C(=O)O; OBn = c1ccc(CO*)cc1
Outcomes: yes (1) for active, no (0) for inactive

compound	target_under_test	label
O=[N+]([O-])c1cc2oc(CSc3ccccc3)nc2cc1Cl	PC-3	no (0)
CC1OC(O[C@H]2/C=C/C=C/C=C/C=C/C=C/C=C/C=C/[C@H](C)[C@@H](O)[C@@H](C)[C@H](C)OC(=O)C[C@H](O)C[C@H](O)CC[C@@H](O)[C@H](O)C[C@H](O)C[C@]3(O)C[C@H](O)[C@@H](C(=O)O)[C@H](C2)O3)C(O)C(N)C1O (some centres not stated)	PC-3	no (0)
CN(C(=O)Cc1cc(Cl)c(Cl)cc1NC(=O)CN)[C@H]1CCCC[C@@H]1N1CCCC1	PC-3	no (0)
CC1=C(O)C(=O)C[C@]2(C)[C@H]3CC=C4[C@@H]5CC(C)(C)CC[C@@H]5C(=O)[C@H](O)[C@@]4(C)[C@]3(C)CC[C@@H]12	PC-3	no (0)
Cc1cc2c(c(/C=N/c3ccc(N(C)C)cc3)c1)OC1(C=C2)Oc2ccccc2C(=O)N1C (configuration not stated)	PC-3	no (0)
O=C1c2ccccc2C2(c3ccc(Cl)cc3)N[C@@H]3CCCC[C@@H]3N12 (some centres not stated)	PC-3	no (0)
O=C1c2cc([N+](=O)[O-])sc2C(=O)c2c([N+](=O)[O-])csc21	PC-3	no (0)
COC(=O)C1(C(=O)OC)CC2=C(S(=O)(=O)c3ccccc3)C[C@H](S(=O)(=O)c3ccccc3)[C@H]2C1	PC-3	no (0)
CN(CC(=O)O)c1ncc2c(n1)CCCC2	PC-3	no (0)
COc1ccc(-c2coc3cc(O)ccc3c2=O)cc1	PC-3	no (0)
CC(OC(=O)C(Cc1ccccc1)NC(=O)C(Cc1ccccc1)NC(=O)OC(C)(C)C)C(=O)OCc1ccccc1 (stereo not drawn) (Boc-Phe-Phe-[Lac]-OBn; configuration not given here)	PC-3	no (0)
O=[N+]([O-])c1ccc(CSCc2ccc(Cl)cc2)cc1	PC-3	no (0)
O=C1Nc2ccc(Cl)cc2/C1=C\c1c(Cl)nc2sccn12	PC-3	no (0)
COC1=C(C)C(=O)c2c(c(COC(N)=O)c3n2CC(OC(C)=O)C3OC(C)=O)C1=O (configuration not stated)	PC-3	yes (1)
O=c1[nH]c2[nH]c(-c3ccc(Br)cc3)cc2c2ccccc12	PC-3	no (0)
Cc1ccc([S+](c2ccccc2)c2cc(C)ccc2C)cc1.O=C(OC(C(=O)[O-])C(OC(=O)c1ccccc1)C(=O)O)c1ccccc1 (configuration not stated)	PC-3	no (0)
CCCNC(=S)N/C=C1\C(=O)Nc2ccccc2C1=O	PC-3	no (0)

====

GI50 data for HCT-15 follow.

molecule	relational_operator	GI50 (µM)
Cc1c(N/C=C(\C#N)C(=O)c2ccc(Cl)cc2)c(=O)n(-c2ccccc2)n1C	>	100
Cn1cc2c(=O)n3ncn(-c4ccc(Br)cc4)c3nc2n1	>	100
O=C(/C=C/c1ccc(Cl)c(Cl)c1)c1ccc2ccccc2c1	>	100
COC(=O)c1cc2c(=O)n(C)c3ccccc3n2c1C(=O)OC	=	80.2
COc1ccc(OCC(=N/NC(=O)c2ccncc2)/N=C/c2cccnc2)cc1	=	60.7
C=C/C=C(\NC(=O)C(Cl)(Cl)Cl)[Si](C)(C)C	>	100
COc1ccc2oc(C(=O)N3CC(CCl)c4ccc(N)cc43)cc2c1 (stereo unspecified)	=	0.238
CC1(C(=O)Nc2ccc3cc4ccccc4cc3c2)CC2(C)CC(C)(C1)C(O)NC2=O (stereo unspecified)	>	100
CCOC(=O)c1ccc(/N=C/c2ccc(N(CCC#N)S(=O)(=O)c3ccccc3)cc2C)cc1	=	6.82
Cc1ccc(OCC2OC(n3cnc4c(Cl)nc(N)nc43)CC2Oc2ccc(C)cc2)cc1 (stereo unspecified)	=	31
O=C1CCC(NC(=O)Cc2ccc(O)cc2)C(=O)N1 (stereo unspecified)	>	2500
